MEASUREMENT TARGET: Torsin-1A-interacting protein 1 (Homo sapiens)
PROTOCOL: LAP1 binders from COS7 cell lysate, primary screen, small-molecule microarray, 635/667 nm fluorescence (AID 1116)
CONDITIONS USED: COS7-hLAP1 lysate binding, 635 nm fluorescence, higher = more signal
Entries annotated with measured composite z-score
Quick one: just the number, no unit, thanks!

Reference set (3 entries):
INSERT INTO assay_data (mol_smiles, test_readout, value_observed) VALUES
  ('CC(C)(C)OC(=O)CC[C@@]12N=C(c3ccc(OCCCO)cc3)O[C@@H]1c1ccccc1N(Cc1ccccc1)C2=O', 'composite z-score', 0.786),
  ('C=CCC1(CC=C)C[C@H]2CO[C@H](c3ccc(OC)cc3)N2C1=O', 'composite z-score', 0.656),
  ('C=C(CCCC)/C(=C/C[C@@H](OC(=O)c1ccncc1)c1ccc(OCCO)cc1)c1cnc2ccccc2c1', 'composite z-score', -0.0621);

Shifting focus to the compound that follows.
Identify measured composite z-score associated with "COc1ccc([Si](C)(C)[C@H]2[C@H](CC(=O)N(CCO)Cc3ccccc3)O[C@@]3(C(=O)N(Cc4ccc(N5CCOC5=O)cc4)c4ccccc43)[C@@H]2C)cc1" 0.639

* * *

PROTOCOL: PSAC antagonists in infected red cells, primary screen, cell-based, P. falciparum Indochina, OD700, 1 h (AID 1154)
CONDITIONS USED: P. falciparum Indochina infected RBC osmotic lysis, higher = more signal, called active from +8 up or from −8 down
Entries annotated with measured z-score
Quick one: just the number, no unit, thanks!

INSERT INTO measurements (compound, test_readout, value_observed) VALUES
  ('O=C1c2ccccc2C(=O)c2cc([C@H]3Oc4ccccc4S(=O)(=O)N4CCC[C@@H]34)ccc21', 'z-score', 8.47),
  ('C=CCN1C(=O)[C@@]2(O[C@@H](CCn3cc(CCO)nn3)[C@H]([Si](C)(C)c3ccc(OC)cc3)[C@H]2C)c2cc(N3C(=O)c4cccc5cccc3c45)ccc21', 'z-score', 16.4),
  ('CC(C)C(CO)N1C(=O)[C@@H]2[C@H]3C(=O)OCC=C[C@H]3OC23C=CCN(Cc2ccccc2)C(=O)[C@@H]13 (some centres not stated)', 'z-score', 0.379),
  ('C=CCC1(CC=C)C[C@H]2CO[C@H](c3ccc(OC)cc3)N2C1=O', 'z-score', -0.214),
  ('COc1ccc(CCNC(=O)[C@@]2(Sc3ccc(C)cc3)CC(=O)N(Cc3ccccc3)[C@@H]2c2ccc(CO)cc2I)cc1', 'z-score', 12.6);

Identify measured z-score associated with "C=CCNC(=O)[C@@H]1[C@H]2C(=O)O[C@H](c3ccccc3)[C@H](c3ccccc3)N2[C@H](c2ccc(O)cc2)[C@@]12C(=O)Nc1ccccc12" 3.11

Identify measured z-score associated with "COc1ccc([Si](C)(C)[C@@H]2[C@@H](CCn3cc(CCO)nn3)O[C@]3(C(=O)N(Cc4ccc(N5C(=O)c6cccc7cccc5c67)cc4)c4ccccc43)[C@H]2C)cc1" 6

* * *

Entries annotated with measured composite z-score
Test system: Sam68 (KHDRBS1)
PROTOCOL: Sam68 small-molecule binders, primary screen, biochemical, small-molecule microarray, 635 nm fluorescence (AID 1125);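 note: score merges 667 nm channel intensity with signal to noise over triplicate slides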
CONDITIONS USED: small-molecule microarray binding, higher = more signal

INSERT INTO assay_data (compound, value_observed) VALUES
  ('CC(C)C(CO)N1C(=O)[C@@H]2[C@H]3C(=O)OCC=C[C@H]3OC23C=CCN(Cc2ccccc2)C(=O)[C@@H]13 (some centres not stated)', -0.69),
  ('CC(C)C[C@@H]1NC(=O)[C@@H]2C[C@H](C(=O)NCCCCCNC(=O)CS)[C@H](c3cccc(OCCO)c3)N2C1=O', 1.31);

Identify measured composite z-score associated with "COCCOC(=O)N1C(=O)[C@@]2(c3ccccc31)[C@H](C(=O)Nc1nc3ccccc3s1)[C@H]1C(=O)O[C@H](c3ccccc3)[C@H](c3ccccc3)N1[C@@H]2c1ccc(O)cc1" 1.3

Identify measured composite z-score associated with "CCOC(=O)C[C@H]1[C@H](OC(=O)c2cc3ccccc3oc2=O)[C@@H](NC(=O)c2ccccc2)c2cc(OCCCO)ccc2N1C(=O)Cc1ccc(OC)cc1" 0.382

Identify measured composite z-score associated with "CCCNC(=O)[C@@H]1c2ccccc2C(=O)N(Cc2cc(C(F)(F)F)cc(C(F)(F)F)c2)[C@H]1c1ccc(CO)cc1" 0.679

Identify measured composite z-score associated with "C/C=C/[C@@H](CCn1cc(CCO[Si](C(C)C)(C(C)C)C(C)C)nn1)[Si](C)(C)c1ccc(OC)cc1" -1.07

Identify measured composite z-score associated with "C=C(/C(=C/C[C@H](OC(=O)c1ccncc1)c1cccc(OCCO)c1)c1cc(C(=O)OC)ccc1OC)C(C)C" 1.12

* * *

PROTOCOL: A549 cell viability effects, profiling panel, calcein-AM fluorescence, 48 h, basal (AID 1162); note: test concentration not given here
CONDITIONS USED: higher = more signal
Lab note: anything with z-score at or over 0.2 counts as 1; the rest go in -1.

These solved cases illustrate the format of a correct answer.
INSERT INTO assay_data (molecule, class) VALUES
  ('COc1ccc(CCNC(=O)[C@@]2(Sc3ccc(C)cc3)CC(=O)N(Cc3ccccc3)[C@@H]2c2ccc(CO)cc2I)cc1', 1),
  ('[N-]=[N+]=Nc1ccccc1[C@H]1OC(c2ccc(OCCCO)cc2)=N[C@@]1(Cc1ccccc1)C(N)=O', -1),
  ('CC(C)CCC[C@@H](C)[C@H]1CC[C@@]2(C)C3=C(CC[C@]12C)[C@@]1(C)CC[C@H](OC(=O)CCl)C(C)(C)C1CC3 (some centres not stated)', 1),
  ('CCCCC(=C=CC[C@@H](O)c1ccc(OCCO)cc1)C[C@@H](O)c1cc(Cl)cc(Cl)c1O', 1),
  ('Cc1ccc(S[C@]2(C(=O)NC3CC3)CC(=O)N(Cc3ccccc3C(F)(F)F)[C@@H]2c2ccc(CO)cc2I)cc1', 1);

Please indicate if the recorded z-score for "C=CCNC(=O)[C@H]1[C@@H]2C(=O)O[C@@H](c3ccccc3)[C@@H](c3ccccc3)N2[C@@H](c2ccc(OCCO)cc2)[C@]12C(=O)Nc1ccc(C#CCCO)cc12" meets or exceeds 0.2. -1

Please indicate if the recorded z-score for "COCCOC(=O)N1C(=O)[C@@]2(c3cc(C#CC4(O)CCCCCC4)ccc31)[C@H](c1ccccc1OCCO)N1[C@H](c3ccccc3)[C@H](c3ccccc3)OC(=O)[C@H]1[C@@H]2C(=O)Nc1nc2ccccc2s1" meets or exceeds 0.2. -1

* * *

MEASUREMENT TARGET: Albumin (Bos taurus) (UniProt P02769)
Sequence (P02769 whole entry, looked up): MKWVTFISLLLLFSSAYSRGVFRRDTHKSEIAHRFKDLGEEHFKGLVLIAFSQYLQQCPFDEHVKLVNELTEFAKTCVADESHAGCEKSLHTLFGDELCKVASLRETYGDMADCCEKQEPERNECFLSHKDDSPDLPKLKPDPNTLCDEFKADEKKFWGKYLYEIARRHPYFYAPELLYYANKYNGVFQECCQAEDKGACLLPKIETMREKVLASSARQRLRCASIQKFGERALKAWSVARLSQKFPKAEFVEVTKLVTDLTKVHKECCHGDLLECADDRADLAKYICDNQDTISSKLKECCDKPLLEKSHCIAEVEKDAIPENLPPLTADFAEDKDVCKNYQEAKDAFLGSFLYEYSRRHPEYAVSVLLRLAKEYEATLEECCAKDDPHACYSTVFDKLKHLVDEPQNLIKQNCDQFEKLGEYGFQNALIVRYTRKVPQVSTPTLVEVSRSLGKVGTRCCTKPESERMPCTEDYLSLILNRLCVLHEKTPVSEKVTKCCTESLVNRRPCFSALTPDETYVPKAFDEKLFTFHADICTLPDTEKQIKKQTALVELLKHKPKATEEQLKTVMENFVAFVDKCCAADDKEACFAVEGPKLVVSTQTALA
PROTOCOL: bovine serum albumin binders on microarray, profiling panel, artefact control for SMM control protein annotation, biochemical, small-molecule microarray, Alexa647 label, 635/667 nm fluorescence (AID 1118);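 note: score merges 667 nm emission intensity and signal-to-noise per printed compound spot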
CONDITIONS USED: BSA-A647 binding, fluorescence 635 nm, higher = more signal
Lab note: anything with composite z-score at or over -1 counts as 1; the rest go in 0.

These solved cases illustrate the format of a correct answer.
INSERT INTO results (mol_smiles, measurement_target, class) VALUES
  ('COC(=O)C(CC#Cc1ccc2c(c1)[C@]1(C(=O)N2)[C@H](C(N)=O)[C@H]2C(=O)O[C@H](c3ccccc3)[C@H](c3ccccc3)N2[C@@H]1c1ccc(O)cc1)C(=O)OC', 'Albumin (Bos taurus) (UniProt P02769)', 1),
  ('COCCCNC(=O)[C@@]1(C)c2ccccc2C(=O)N(Cc2cc(F)cc(C(F)(F)F)c2)[C@H]1c1ccc(CO)cc1', 'Albumin (Bos taurus) (UniProt P02769)', 0),
  ('COc1ccc(C#Cc2ccc3c(c2)[C@]2(C(=O)N3)[C@H](c3ccc(O)cc3)N3[C@H](c4ccccc4)[C@H](c4ccccc4)OC(=O)[C@H]3[C@@H]2C(=O)N2CCN(c3ncccn3)CC2)cc1', 'Albumin (Bos taurus) (UniProt P02769)', 1),
  ('COCCCNC(=O)[C@@]1(CCS(=O)(=O)c2ccccc2)N=C(c2ccc(OCCCO)cc2)O[C@H]1c1ccccc1CN=[N+]=[N-]', 'Albumin (Bos taurus) (UniProt P02769)', 1);

Please indicate if the recorded composite z-score for "COCCCNC(=O)[C@@]1(Cc2ccccc2CN=[N+]=[N-])COC(c2ccc(OCCCO)cc2)=N1" meets or exceeds -1. 1

* * *

Entries annotated with measured composite z-score
MEASUREMENT TARGET: Left-right determination factor 2 (Homo sapiens)
PROTOCOL: LEFTY2 binders on small-molecule microarrays, primary screen, biochemical, small-molecule microarray, 635 nm fluorescence scan (AID 1110)
CONDITIONS USED: LEFTY2 binding, higher = more signal
Quick one: just the number, no unit, thanks!

Identify measured composite z-score associated with "CC(C)NC(=O)[C@@H]1c2ccccc2C(=O)N(Cc2cc(F)cc(C(F)(F)F)c2)[C@H]1c1ccc(CO)cc1" -0.556

Identify measured composite z-score associated with "O=C1c2ccccc2[C@](Cc2ccccc2I)(C(=O)O)[C@H](c2ccc(CO)cc2)N1Cc1ccccc1Cl" -0.0287

Identify measured composite z-score associated with "C/C=C/[C@@H](CCn1cc(CCO[Si](C(C)C)(C(C)C)C(C)C)nn1)[Si](C)(C)c1ccc(OC)cc1" -0.426
